Hey, just so you know, these numbers are from ChEMBL document CHEMBL1141038.

- Test method notes: Plasma peak concentration in DIO mice after 10 mg/kg oral dose
- Format: ADME, organism-based
- Parameters: dose 10 mg/kg, route oral
- Condition info: mouse
Experimental readout: Cmax
Answer by giving the amount and then stating its unit.

Q: Look up and report measured Cmax for this entry: O=C(NC1CCN(Cc2ccc3c(c2)OCO3)CC1)c1cc(Cl)ccc1NCc1nccs1
Ans: 2030 ng/mL

----------
- Measured target: Melanin-concentrating hormone receptor 1 (Homo sapiens)
- Sequence (Q99705 whole entry): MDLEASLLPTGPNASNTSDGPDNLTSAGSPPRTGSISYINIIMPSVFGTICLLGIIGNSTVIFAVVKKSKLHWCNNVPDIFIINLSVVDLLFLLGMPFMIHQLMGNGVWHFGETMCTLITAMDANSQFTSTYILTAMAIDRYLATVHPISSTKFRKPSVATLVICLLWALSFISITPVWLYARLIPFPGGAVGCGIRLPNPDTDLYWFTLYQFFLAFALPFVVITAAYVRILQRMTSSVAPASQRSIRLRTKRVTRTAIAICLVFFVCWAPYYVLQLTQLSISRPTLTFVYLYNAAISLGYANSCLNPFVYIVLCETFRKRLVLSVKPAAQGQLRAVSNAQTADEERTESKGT
- Test method notes: Inhibitory activity towards melanin-concentrating hormone receptor 1 in IMR32 cells
- Type: cell-based, IMR-32
Experimental readout: pIC50
Note on pIC50: it is the negative log10 of concentration, concentration in mol/L.

Q: Output measured pIC50 for this item: CC(C)Nc1ncc(Cl)cc1C(=O)NC1CCN(Cc2ccc3c(c2)OCO3)CC1
Ans: 7.70

Q: Please give measured pIC50 of the following entry: COc1ccc(CNc2ncc(Cl)cc2C(=O)NC2CCN(Cc3ccccc3)CC2)cc1
Ans: 8.00

Q: Give a short answer stating reported pIC50 for COc1ccc(NCC2CCOC2)c(C(=O)NC2CCN(Cc3ccc4c(c3)OCO4)CC2)c1 (stereo not given) .
Ans: 7.70

Q: Give the value of pIC50 reported for the following: COc1ccc(NC(=O)NC(C)C)c(C(=O)NC2CCN(Cc3ccc(Cl)cc3)CC2)c1
Ans: 6.66

Q: Report pIC50, nothing else, for this compound: O=C(NC1CCN(Cc2ccc(Cl)cc2)CC1)c1cc(Cl)cnc1NC1CCC1
Ans: 5.70

Q: Return value of pIC50 for input O=C(NC1CCN(Cc2ccc(Cl)cc2)CC1)c1cc(Cl)cnc1NCC1CC1 , no commentary.
Ans: 6.39

Q: Recall and state the measured pIC50 for CC(C)CNc1ncc(Cl)cc1C(=O)NC1CCN(Cc2ccc3c(c2)OCO3)CC1 .
Ans: 7.70

Q: Provide one value: measured pIC50 of CC(=O)c1ccc(CN2CCC(NC(=O)c3cc(Cl)ccc3NCc3c[nH]cn3)CC2)cc1
Ans: 8.00

Q: Please list pIC50 recorded for the compound O=C(NC1CCN(Cc2ccc3c(c2)OCO3)CC1)c1cc(Cl)cnc1NCc1cscn1
Ans: 8.40

Q: Supply measured pIC50 of Nc1ccc(Cl)cc1C(=O)NC1CCN(Cc2ccc3c(c2)OCO3)CC1 in your reply.
Ans: 8.05
